Cited source: the SangsterLogP compilation

Respond with fulfilled for logP values of 2 and above, not fulfilled for values below.

Some solved cases for reference:
>>> label_value("COc1ccc(NC(=O)c2cccc([N+](=O)[O-])c2O)cc1")
"not fulfilled"
>>> label_value("Cc1ccc(Cl)cc1NC(=O)c1cccc([N+](=O)[O-])c1O")
"fulfilled"
>>> label_value("CCOc1ccccc1NC(=O)c1cc([N+](=O)[O-])ccc1O")
"fulfilled"
>>> label_value("O=C(Nc1ccc(Cl)cc1)c1cccc([N+](=O)[O-])c1O")
"fulfilled"
>>> label_value("Cc1ccccc1NC(=O)c1cccc([N+](=O)[O-])c1O")
"not fulfilled"

## Task Does the reported logP for Cc1ccc(Cl)cc1NC(=O)c1cc([N+](=O)[O-])ccc1O fall at or above the 2 mark?
## Result fulfilled

## Task # bool: logP of Cc1c(Cl)cccc1NC(=O)c1cccc([N+](=O)[O-])c1O >= 2
## Result fulfilled
